Tested System: β-catenin (Homo sapiens)
Experiment Summary: KD50 measurement using competitive fluorescence polarization (FP) with labelled TCF4
Format: binding
Applied Conditions: fluorescence polarization, β-catenin; read-out: β-Cat FP KD
Where a SMILES comes first, the peptide text is derived from it.
Quantity Kind: Kd

Task item: Query (compound): CC[C@H](C)[C@@H]1NC(=O)[C@H](Cc2c[nH]cn2)NC(=O)[C@H](CCC(=O)O)NC(=O)[C@H](Cc2ccccc2)NC(=O)[C@H](Cc2c[nH]c3ccccc23)NC(=O)[C@H](CO)NC(=O)[C@H]([C@@H](C)CC)NC(=O)[C@H](C)N(C)C(=O)[C@H](CC(C)C)NC(=O)[C@@H]2CCCN2C(=O)[C@H](CCSC)NC(=O)[C@@H](N)CCCCNC(=O)CNC1=O [compound 29] (HELM PEPTIDE1{K.M.P.L.[meA].I.S.W.F.E.H.I.G}$PEPTIDE1,PEPTIDE1,1:R3-13:R2$$$V2.0; bridges inferred) ; field requested: Kd
Reply: 0.4 to 1 µM

Task item: Could you tell me which Kd is on file for CSCC[C@H](NC(=O)[C@H](CCCNC(=N)N)NC(=O)[C@H](CO)NC(=O)[C@@H](N)CCSC)C(=O)N[C@@H](Cc1c[nH]c2ccccc12)C(=O)N[C@@H](Cc1ccccc1)C(=O)N[C@@H](CC(C)C)C(=O)N[C@H](C(=O)N[C@@H](CO)C(=O)N[C@@H](Cc1ccccc1)C(=O)N[C@@H](Cc1c[nH]c2ccccc12)C(=O)NCC(=O)O)[C@@H](C)O [compound 62] (H-MSRMWFLTSFWG-OH) ?
Reply: > 30 µM

Task item: Given the entry CC[C@H](C)[C@H](NC(=O)[C@H](CC(C)C)NC(=O)[C@H](Cc1ccccc1)NC(=O)[C@H](Cc1c[nH]c2ccccc12)NC(=O)[C@H](CCSC)NC(=O)[C@H](CCCNC(=N)N)NC(=O)[C@H](CO)NC(=O)[C@@H](N)CCC(=O)O)C(=O)N[C@@H](CO)C(=O)N[C@@H](Cc1ccccc1)C(=O)N[C@@H](Cc1c[nH]c2ccccc12)C(N)=O [compound 86] (H-ESRMWFLISFW-NH2) , report its measured Kd.
Reply: > 30 µM

Task item: Item CC[C@H](C)[C@@H]1NC(=O)[C@H](CC(C)C)NC(=O)[C@H](Cc2ccccc2)NC(=O)[C@H](Cc2c[nH]c3ccccc23)NC(=O)[C@@H](N)CCCCNC(=O)CC[C@@H](C(=O)O)NC(=O)[C@H](Cc2c[nH]c3ccccc23)NC(=O)[C@H](Cc2ccccc2)NC(=O)[C@H](C)NC1=O [compound 201] (HELM PEPTIDE1{K.W.F.L.I.A.F.W.E}$PEPTIDE1,PEPTIDE1,1:R3-9:R3$$$V2.0) has what recorded Kd?
Reply: 1 to 10 µM

Task item: Form field: reported Kd of CC[C@H](C)[C@H](NC(=O)[C@H](CC(C)C)NC(=O)[C@H](Cc1ccccc1)NC(=O)[C@H](Cc1c[nH]c2ccccc12)NC(=O)[C@@H](N)CCSC)C(=O)N[C@@H](C)C(=O)N[C@@H](C)C(=O)N[C@@H](Cc1c[nH]c2ccccc12)C(=O)NCC(=O)O [compound 212] (H-MWFLIAAWG-OH)
Reply: 0.4 to 1 µM

###

Applied Conditions: % Viability non-Wnt responsive cells
Where a SMILES comes first, the peptide text is derived from it.
Below, each of the molecules is paired with its reported viability value.
API: value field is a number in %; no unit string.

Recorded viability, per entry:
- Molecule: "CC[C@H](C)[C@H](NC(=O)[C@H](CC(C)C)NC(=O)[C@H](Cc1ccccc1)NC(=O)[C@H](Cc1c[nH]c2ccccc12)NC(=O)[C@@H](NC(=O)[C@H](CCCNC(=N)N)NC(=O)[C@H](CO)NC(=O)[C@@H](N)CCSC)[C@@H](C)O)C(=O)N[C@@H](CO)C(=O)N[C@@H](Cc1ccccc1)C(=O)N[C@@H](Cc1c[nH]c2ccccc12)C(=O)NCC(=O)O [compound 48] (H-MSRTWFLISFWG-OH)"
  viability / %: 101
- Molecule: "CC[C@H](C)[C@@H]1NC(=O)[C@H](CC(C)C)NC(=O)[C@H](Cc2ccccc2)NC(=O)[C@H](Cc2c[nH]c3ccccc23)NC(=O)[C@@H](N)CCCCNC(=O)C[C@@H](C(=O)O)NC(=O)[C@H](Cc2c[nH]c3ccccc23)NC(=O)[C@H](C)NC(=O)[C@H](CS)NC1=O [compound 168] (HELM PEPTIDE1{K.W.F.L.I.C.A.W.D}$PEPTIDE1,PEPTIDE1,1:R3-9:R3$$$V2.0)"
  viability / %: 99.1
- Molecule: "CC[C@H](C)[C@H](NC(=O)[C@H](CC(C)C)NC(=O)[C@H](Cc1ccccc1)NC(=O)[C@H](Cc1c[nH]c2ccccc12)NC(=O)[C@H](CCSC)NC(=O)[C@H](CCCNC(=N)N)NC(=O)[C@H](CO)NC(=O)[C@@H](N)CC(=O)O)C(=O)N[C@@H](CO)C(=O)N[C@@H](Cc1ccccc1)C(=O)N[C@@H](Cc1c[nH]c2ccccc12)C(N)=O [compound 85] (H-DSRMWFLISFW-NH2)"
  viability / %: 107
- Molecule: "CC[C@H](C)[C@@H]1NC(=O)[C@H](CC(C)C)NC(=O)[C@H](Cc2ccccc2)NC(=O)[C@H](Cc2c[nH]c3ccccc23)NC(=O)[C@@H](N)CCCCNC(=O)CC[C@@H](C(=O)O)NC(=O)[C@H](Cc2c[nH]c3ccccc23)NC(=O)[C@H](C)NC(=O)[C@H](CO)NC1=O [compound 183] (HELM PEPTIDE1{K.W.F.L.I.S.A.W.E}$PEPTIDE1,PEPTIDE1,1:R3-9:R3$$$V2.0)"
  viability / %: 97
- Molecule: "CC[C@H](C)[C@H](NC(=O)[C@H](CC(C)C)NC(=O)C(C)(Cc1ccccc1)NC(=O)[C@H](Cc1c[nH]c2ccccc12)NC(=O)[C@@H](N)CCSC)C(=O)N[C@@H](CO)C(=O)N[C@@H](Cc1ccccc1)C(=O)N[C@@H](Cc1c[nH]c2ccccc12)C(=O)NCC(=O)O (stereo partly drawn) [compound 133] (HELM PEPTIDE1{M.W.[CC(Cc1ccccc1)(N[*:1])C(=O)[*:2]].L.I.S.F.W.G}$$$$V2.0)"
  viability / %: 95.4

We now examine a further molecule.
Task item: Record request: viability value, item CC[C@H](C)[C@H](NC(=O)[C@H](CC(C)C)NC(=O)[C@@H](NC(=O)[C@H](Cc1c[nH]c2ccccc12)NC(C)=O)[C@@H](C)CC)C(=O)N[C@@H](CO)C(=O)N[C@@H](Cc1ccccc1)C(=O)N[C@@H](Cc1c[nH]c2ccccc12)C(=O)NCC(=O)O [compound 195] (Ac-WILISFWG-OH)
Reply: 105

###

Tested System: β-catenin (Homo sapiens)
Sequence (P35222 1-781): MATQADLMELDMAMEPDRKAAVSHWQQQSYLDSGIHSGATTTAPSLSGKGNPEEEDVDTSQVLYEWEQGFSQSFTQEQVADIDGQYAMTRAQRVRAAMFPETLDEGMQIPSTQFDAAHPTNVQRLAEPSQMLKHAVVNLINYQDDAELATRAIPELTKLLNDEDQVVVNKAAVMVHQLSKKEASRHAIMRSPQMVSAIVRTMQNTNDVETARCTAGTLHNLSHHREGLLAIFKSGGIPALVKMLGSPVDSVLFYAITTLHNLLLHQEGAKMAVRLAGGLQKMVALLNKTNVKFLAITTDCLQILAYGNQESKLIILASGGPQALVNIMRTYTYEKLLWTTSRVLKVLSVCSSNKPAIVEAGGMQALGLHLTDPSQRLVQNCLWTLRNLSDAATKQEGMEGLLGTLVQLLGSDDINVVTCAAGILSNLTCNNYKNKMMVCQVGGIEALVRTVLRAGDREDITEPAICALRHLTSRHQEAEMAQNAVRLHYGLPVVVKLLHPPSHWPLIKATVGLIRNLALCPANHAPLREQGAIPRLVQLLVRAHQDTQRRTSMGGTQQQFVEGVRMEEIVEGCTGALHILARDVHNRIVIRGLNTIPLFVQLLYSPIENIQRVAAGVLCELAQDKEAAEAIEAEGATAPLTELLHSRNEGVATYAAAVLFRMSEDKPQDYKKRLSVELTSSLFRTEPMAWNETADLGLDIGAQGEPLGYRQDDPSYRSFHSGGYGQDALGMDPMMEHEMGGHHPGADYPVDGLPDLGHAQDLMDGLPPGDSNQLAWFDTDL
Experiment Summary: KD50 measurement using competitive fluorescence polarization (FP) with labelled TCF4
Type: binding
Applied Conditions: fluorescence polarization, β-catenin; read-out: β-Cat FP KD
Where a SMILES comes first, the peptide text is derived from it.
Measured Kd of individual entries

- Compound: "CCC[C@H](N)C(=O)N[C@@H](Cc1c[nH]c2ccccc12)C(=O)N[C@@H](Cc1ccccc1)C(=O)N[C@@H](CC(C)C)C(=O)N[C@H](C(=O)N[C@@H](CS)C(=O)N[C@@H](Cc1ccccc1)C(=O)N[C@@H](Cc1c[nH]c2ccccc12)C(=O)NCC(=O)O)[C@@H](C)CC [compound 141] (HELM PEPTIDE1{[Nva].W.F.L.I.C.F.W.G}$$$$V2.0)"
  Kd: "> 30 µM"
- Compound: "CC[C@@H]1NC(=O)[C@H]([C@@H](C)CC)NC(=O)[C@H](CC(C)C)NC(=O)[C@H](Cc2ccccc2)NC(=O)[C@H](Cc2c[nH]c3ccccc23)NC(=O)[C@@H](NC(C)=O)CCCCNC(=O)C[C@@H](C(=O)O)NC(=O)[C@H](Cc2c[nH]c3ccccc23)NC(=O)[C@H](C)NC1=O [compound 243] (HELM PEPTIDE1{[ac].K.W.F.L.I.[Abu].A.W.D}$PEPTIDE1,PEPTIDE1,2:R3-10:R3$$$V2.0)"
  Kd: "10 to 30 µM"
- Compound: "CC[C@H](C)[C@H](NC(=O)[C@H](CC(C)C)NC(=O)[C@H](Cc1ccccc1)NC(=O)[C@H](Cc1c[nH]c2ccccc12)NC(=O)[C@H](CCCCN)NC(=O)[C@H](CCCNC(=N)N)NC(=O)[C@H](CO)NC(=O)[C@@H](N)CCSC)C(=O)N[C@@H](CO)C(=O)N[C@@H](Cc1ccccc1)C(=O)N[C@@H](Cc1c[nH]c2ccccc12)C(N)=O [compound 87] (H-MSRKWFLISFW-NH2)"
  Kd: "> 30 µM"
- Compound: "CC[C@H](C)[C@@H]1NC(=O)[C@H](CC(C)C)NC(=O)[C@H](Cc2ccccc2)NC(=O)[C@H](Cc2c[nH]c3ccccc23)NC(=O)[C@@H](N)CCCCNC(=O)CCCCNC(=O)C[C@@H](C(=O)O)NC(=O)[C@H](Cc2c[nH]c3ccccc23)NC(=O)[C@H](C)NC(=O)[C@H](CS)NC1=O [compound 248] (HELM PEPTIDE1{K.W.F.L.I.C.A.W.[O=C(O)[C@H](CC(=O)[*:2])N[*:1]].[O=C(CCCCN[*:1])[*:2]]}$PEPTIDE1,PEPTIDE1,1:R3-10:R2$$$V2.0)"
  Kd: "> 30 µM"

Field: next compound
Task item: Would you kindly share the measured Kd for CC[C@H](C)[C@H](NC(=O)[C@H](CC(C)C)NC(=O)[C@H](Cc1ccccc1)NC(=O)[C@H](Cc1c[nH]c2ccccc12)NC(=O)[C@@H](N)CCSC)C(=O)N[C@@H](CO)C(=O)N[C@@H](Cc1ccccc1)C(=O)N[C@@H](Cc1c[nH]c2ccccc12)C(=O)N[C@@H](CCCNC(=N)N)C(=O)NCC(=O)O [compound 49] (H-MWFLISFWRG-OH) ?
Reply: > 30 µM
